experiment description: T. gondii growth inhibition with IFN-gamma, primary screen, cell-based (AID 1259416);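 note: host cells are HeLa cells infected with Toxoplasma gondii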
measurement conditions: Toxoplasma gondii growth in IFN-gamma-treated host cells; hits give low values; concentration not given here
The campaign covered roughly 69,000 compounds. About 2,600 (3.8%) were called active. Only a selection was taken, and actives are over-represented in it overall.
Label Criterion met when activity change, negative = inhibition < -50%; otherwise Criterion not met.

Worked examples follow.
C[C@H](CO)N1C[C@H](C)[C@@H](CN(C)S(=O)(=O)c2ccc([N+](=O)[O-])cc2)OCc2ccccc2-c2c(n(C)c3ccccc23)C1=O Criterion met
C[C@H]1CN([C@@H](C)CO)C(=O)c2ccccc2-c2ccccc2CO[C@H]1CN(C)S(=O)(=O)c1cccc(C#N)c1 Criterion not met
COc1ccc(S(=O)(=O)N2CCOCC2)cc1NC(=O)COc1ccccc1 Criterion met

Qu. Does COc1ccc(-c2nc(C)c(CCNC(=O)C(=O)Nc3cccc(OC)c3)s2)cc1 have activity change, negative = inhibition strictly under -50%?
Ans. Criterion not met

Qu. Does O=C(NC1CC1)c1cc2n(n1)CCN(C(=O)CCn1nnc3ccccc31)C2 have activity change, negative = inhibition strictly under -50%?
Ans. Criterion not met
